measuredOn: canine IL-4RA (construct not given) (canine)
testProtocol: SPR, IL-4RA immobilised, periplasmic Fab
outcomeMeasure: koff (s⁻¹)
Report the value in s⁻¹ with no unit label.

Please indicate koff recorded for FJ2246MP06C10 (Fab, V domains shown) VH: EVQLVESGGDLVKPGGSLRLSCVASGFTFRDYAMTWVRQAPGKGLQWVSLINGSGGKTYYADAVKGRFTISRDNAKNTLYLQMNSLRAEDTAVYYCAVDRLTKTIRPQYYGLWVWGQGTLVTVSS VL: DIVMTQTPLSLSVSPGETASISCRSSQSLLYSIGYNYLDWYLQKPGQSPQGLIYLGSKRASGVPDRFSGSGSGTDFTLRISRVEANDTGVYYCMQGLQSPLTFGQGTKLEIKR
0.000133

Give koff for FJ2246MP06F01 (Fab, V domains shown) VH: EVQLVESGGDLVKPGGSLRLSCVASGFTFRDYAMTWVRQAPGKGLQWVSLINGSGTKTYYADAVKGRFTISRDNAKNTLYLQMNSLRAEDTAVYYCAVDRLTKTIRPQYYGLWVWGQGTLVTVSS VL: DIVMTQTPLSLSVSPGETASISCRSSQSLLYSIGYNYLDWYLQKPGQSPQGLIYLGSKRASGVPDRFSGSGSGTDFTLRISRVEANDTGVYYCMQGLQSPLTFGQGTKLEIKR
0.000112

Look up and report measured koff for this entry: FJ2246MP07A09 (Fab, V domains shown) VH: EVQLVESGGDLVKPGGSLRLSCVASGFTFRDYAMTWVRQAPGKGLQWVSLINGSGGKTYYADAVKGRFTISRDNAKNTLYLQMNSLRAEDTAVYYCAVDRLTKTIRPQYYGMWSWGQGTLVTVSS VL: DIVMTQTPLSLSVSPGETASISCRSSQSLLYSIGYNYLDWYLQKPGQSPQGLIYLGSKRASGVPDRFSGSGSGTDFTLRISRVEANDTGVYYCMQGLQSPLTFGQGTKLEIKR
6.73e-05
